Below is a list of entries, each paired with its recorded pIC50 value.
Target: Polyunsaturated fatty acid 5-lipoxygenase (Homo sapiens, UniProt P09917)
Sequence (P09917 whole entry): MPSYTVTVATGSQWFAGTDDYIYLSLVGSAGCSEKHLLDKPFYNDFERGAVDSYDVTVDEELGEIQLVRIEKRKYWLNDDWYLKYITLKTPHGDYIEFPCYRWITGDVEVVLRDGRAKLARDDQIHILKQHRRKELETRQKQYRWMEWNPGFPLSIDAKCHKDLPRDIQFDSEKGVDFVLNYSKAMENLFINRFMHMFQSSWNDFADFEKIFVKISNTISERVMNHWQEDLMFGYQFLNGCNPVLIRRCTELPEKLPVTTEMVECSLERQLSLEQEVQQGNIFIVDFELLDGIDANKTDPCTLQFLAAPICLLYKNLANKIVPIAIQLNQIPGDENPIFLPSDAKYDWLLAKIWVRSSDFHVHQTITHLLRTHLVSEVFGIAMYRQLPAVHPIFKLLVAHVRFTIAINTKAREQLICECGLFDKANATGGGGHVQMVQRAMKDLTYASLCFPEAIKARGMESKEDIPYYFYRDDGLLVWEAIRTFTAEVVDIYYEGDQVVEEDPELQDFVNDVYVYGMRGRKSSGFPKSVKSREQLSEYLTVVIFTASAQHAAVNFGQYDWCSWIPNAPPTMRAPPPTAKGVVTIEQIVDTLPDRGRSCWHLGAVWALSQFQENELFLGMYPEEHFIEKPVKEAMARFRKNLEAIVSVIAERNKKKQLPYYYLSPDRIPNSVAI
Experiment: Compound was tested for the inhibition of 5-lipoxygenase of human PMN stimulated by calcium ionophore A-23187 for the formation of leukotriene B4 (LTB4)
pIC50: −log10 of the molar value.

{"COMPOUND": "CCCCC/C=C\\C/C=C\\[C@@H]1C[C@H]1/C=C\\C/C=C\\CCCC(=O)O (stereo in doubt; (-)-7a)", "SYSTEM NAME": "Polyunsaturated fatty acid 5-lipoxygenase (Homo sapiens, UniProt P09917)", "pIC50": 5.62}
{"COMPOUND": "CCCCC/C=C\\C/C=C\\[C@@H]1CC(C)=C(C)C[C@H]1/C=C\\C/C=C\\CCCC(=O)O", "SYSTEM NAME": "Polyunsaturated fatty acid 5-lipoxygenase (Homo sapiens, UniProt P09917)", "pIC50": 5.80}
{"COMPOUND": "CCCCC/C=C\\C/C=C\\[C@@H]1C[C@H]1/C=C\\C/C=C\\CCCC(=O)O (stereo in doubt; (+)-7a)", "SYSTEM NAME": "Polyunsaturated fatty acid 5-lipoxygenase (Homo sapiens, UniProt P09917)", "pIC50": 5.55}
{"COMPOUND": "CCCCC/C=C\\C/C=C\\[C@H]1CC(C)=C(C)C[C@H]1/C=C\\C/C=C\\CCCC(=O)O", "SYSTEM NAME": "Polyunsaturated fatty acid 5-lipoxygenase (Homo sapiens, UniProt P09917)", "pIC50": 5.72}
